- System: CCRF-CEM
- RUN_DESCRIPTION: NCI tumour cell line growth inhibition, 48 h
Active and inactive are the calls of the source. Rule as the data show it: active = GI50 up to about 1.1 µM and inactive = higher.
// classify into True = active, False = inactive

Worked examples, 2 compounds total:
CN(CC(=O)O)S(=O)(=O)c1ccc(F)cc1	False
COC(=O)Cc1c(C(=O)CC(C)(C)n2cnc(CCN3C(=O)CCC3=O)c2)[nH]c2ccccc12	False

Hi, do you know how CCOP1(=O)C=C(Sc2ccc([N+](=O)[O-])cc2[N+](=O)[O-])C(C)(C)O1 (stereo not given) came out in this test?
False

Request: C[N+]12C=CC=C1C(N1CCCC1)c1scc(-c3ccccc3)c12 (stereo not given)
False

# iterate: `CC(C(=O)[O-])S(=O)(=O)O.CCc1c2cc(OC)c(OC)cc2cc2c3cc(OC)c(OC)cc3cc[n+]12`
False

----------
- System: SK-MEL-28
- RUN_DESCRIPTION: NCI tumour cell line growth inhibition, 48 h
The source made the active and inactive calls. No stated cut-off is given here; in the data, active = GI50 up to about 1.1 µM and inactive = higher.
PROPERTY_MEASURED: GI50

Example entries begin here.
CS/C(=N\c1nccs1)NC(=O)c1cccc(Cl)c1	> 100 µM (inactive)
Cc1nnc2cc(C(=O)O)c3ccccc3n2c1=O	> 10 µM (inactive)
c1cnc(N2CCN(Cc3c[nH]c4ccccc34)CC2)nc1	> 100 µM (inactive)
COc1ccc(/C=[N+](\[O-])[C@H](COCc2ccccc2)c2ccccc2)cc1	38 µM (inactive)
COc1cc(C2c3[nH]c4ccccc4c3[C@@H](Nc3ccc(F)cc3)[C@H]3COC(=O)N23)cc(OC)c1O (stereo partly specified)	2.01 µM (inactive)

Now look at this one.
Look up GI50 for this compound: `COc1ccc2c3c(c(=O)n(C)c2c1OC)C=CC(C)(C)O3`
41.9 µM (inactive)

----------
- Test system: SK-MEL-28
- RUN_DESCRIPTION: NCI tumour cell line growth inhibition, 48 h
The source made the active and inactive calls. No stated cut-off is given here; in the data, active = GI50 up to about 1.1 µM and inactive = higher.
Entries and their measured GI50 follow.

c1ccc([P+](c2ccccc2)(c2ccccc2)C2c3ccccc3-c3ccccc32)cc1	3.01 µM (inactive)

Item `Oc1ccc(/N=N/c2ccc(Cl)cc2)cc1` has what recorded GI50?
23 µM (inactive)

What do we get for `CCN(CC)C1=Nc2ccccc2-n2c(C)cnc2C1` ?
> 100 µM (inactive)

Please answer likewise for C[N+](C)(C)CC(=O)N/N=C(/CC(=O)CC(C1=C(O)c2ccccc2OC1)c1ccccc1)C(=O)Nc1cccc(Cl)c1 (configuration not stated)
> 100 µM (inactive)

Same thing, different compound: CC1(C)CNC(=O)C2(/C=N/C(C)(C)CNC(=O)C3(/C=N/1)CCCO3)CCCO2 (configuration not stated)
> 10 µM (inactive)

What about `CCOc1ccc2c(c1)c(=O)c1c(NCCN(CC)CC)ccc3nnn2c31` ?
> 40.4 µM (inactive)

----------
Entries and their GI50 values follow.
- Tested on: OVCAR-4
- RUN_DESCRIPTION: NCI tumour cell line growth inhibition, 48 h
Calls of active or inactive are those of the source. No stated cut-off is given here; in the data, active = GI50 up to about 1.1 µM and inactive = higher. Residues, ends and D or L forms follow the SMILES beside them. *: point of attachment. Cbz = O=C(OCc1ccccc1)*; Boc = CC(C)(C)OC(=O)*; OSu = O=C1CCC(=O)N1O*; Bn = c1ccc(C*)cc1

Cn1c2ccccc2c(=O)c2c(O)cc3c(c21)C=CC(C)(C)O3	> 25 µM (inactive)
COc1cc(C2c3[nH]c4ccccc4c3[C@@H](Nc3ccc(F)cc3)[C@H]3COC(=O)N23)cc(OC)c1O (stereo not given in full)	2.55 µM (inactive)
CC(C)(C)OC(=O)NC(Cc1ccc(OCc2ccccc2)cc1)C(=O)NC(CCCCNC(=O)OCc1ccccc1)C(=O)NC(CCCCNC(=O)OCc1ccccc1)C(=O)ON1C(=O)CCC1=O (stereo not given) (Boc-Tyr(Bn)-Lys(Cbz)-Lys(Cbz)-OSu; configuration not given here)	60.7 µM (inactive)
CC1=NN(c2nc(N)nc(CSc3nc4n(c(=S)n3)CCN4)n2)C(C)(C)C1	> 100 µM (inactive)

Shifting focus to the compound that follows.
Reported GI50, compound `Oc1cc(Br)cc2cc(Br)cnc12` : ____
1.39 µM (inactive)

----------
- Test system: OVCAR-5
- RUN_DESCRIPTION: NCI tumour cell line growth inhibition, 48 h
Calls of active or inactive are those of the source. Cut-off read from the data, not from the text of the source: active = GI50 up to about 1.1 µM and inactive = higher.
Field 'call' accepts active, inactive

Use these answered entries as a reference point.
Cc1cccc(C)c1NC(=O)C(=O)C1C(=O)NC(=O)NC1=O	inactive
O=C(Nc1ccccc1)OCCN=C1c2ccccc2CCc2ccccc21	inactive
Cc1nc2c(Cl)cc(Cl)cc2c(Cl)c1CCCl	inactive
CCOC(=O)C1(Cc2ccccc2)CCN(C(=O)c2ccccc2)C2C1C2(Cl)Cl (stereo not given)	inactive

Okay, now this compound:
In this assay, the call recorded for `COC(=O)[C@@H]1c2cc3c(c(O)c2[C@@H](OC)C[C@@]1(C)O)C(=O)c1c(O)cc2c(c1C3=O)OC1O[C@@]2(C)[C@H](O)[C@@H](N(C)C)[C@@H]1O` was what?
active

----------
- System: LXFL 529
- RUN_DESCRIPTION: NCI tumour cell line growth inhibition, 48 h
Calls of active or inactive are those of the source. Rule as the data show it: active = GI50 up to about 1.1 µM and inactive = higher.
PROPERTY_MEASURED: GI50

c1c[nH]c(Cc2nc(Cc3c[nH]cn3)c[nH]2)n1	6.7 µM (inactive)
O=C1OC(c2ccccc2)C2CC3CC4(CCC3CN12)OCCO4 (stereo not given)	32.7 µM (inactive)
CCN(CC)c1ccc(/N=N/c2ccc([N+](=O)[O-])cc2OC(=O)/C=C/c2ccccc2)c(OC(=O)/C=C/c2ccccc2)c1	21.5 µM (inactive)
COc1cc(C2C(C(=O)Nc3cc(F)c(F)cc3F)=C(C)NC(C)=C2C(=O)Nc2cc(F)c(F)cc2F)ccc1O	21.5 µM (inactive)

Suppose we examine the compound N#CC1(C#N)C(c2ccccc2)C=CC12OCCCO2 (stereo not given) ; what GI50 value has been reported?
28.5 µM (inactive)

Note, next up: `CN(C)c1ccc(/C=C/C(=O)c2ccccc2)cc1Br`
15.1 µM (inactive)

Same for `c1ccc(CN2COc3c(ccc4c5c(ccc34)CN(Cc3ccccc3)CO5)C2)cc1`
> 100 µM (inactive)

Then `CC(=O)/C(C)=N/NC(=O)c1ccccc1O` ?
> 10 µM (inactive)

Record: `CCc1ccccc1NC(=O)/C(CC(=O)c1c(C)[n+]([O-])c2ccccc2[n+]1[O-])=N\NS(=O)(=O)c1ccc(C)cc1`
26.3 µM (inactive)

Lookup `O=C(O)c1ccc([N+](=O)[O-])c2c(=O)c3ccccc3[nH]c12`
> 100 µM (inactive)

Repeat with `COc1cc(O)c2c(c1)O[C@@H]1OCC[C@H]21`
> 100 µM (inactive)

// next record `Cc1cccc(C)c1NC(=O)C(=O)C1C(=O)NC(=O)NC1=O`
> 100 µM (inactive)

Now this one: `CC(C(=O)[O-])S(=O)(=O)O.CCc1c2cc(OC)c(OC)cc2cc2c3cc(OC)c(OC)cc3cc[n+]12`
5.09 µM (inactive)

Check `N#CCc1nc2c(s1)C(=O)c1ccccc1C2=O` too.
15 µM (inactive)

----------
Listing of entries alongside the reported GI50.
- Tested on: UO-31
- RUN_DESCRIPTION: NCI tumour cell line growth inhibition, 48 h
Active and inactive are the calls of the source. No stated cut-off is given here; in the data, active = GI50 up to about 1.1 µM and inactive = higher.

Check out these entries, answers already filled in.
COc1ccc2oc(-c3cc4cc(OC)ccc4o3)cc2c1	> 100 µM (inactive)
NN/C(=N\S(=O)(=O)c1cc(S(=O)(=O)c2ccccc2)cs1)Nc1ccc(Cl)cc1	28.8 µM (inactive)
COc1cc(C2C(C(=O)Nc3cc(F)c(F)cc3F)=C(C)NC(C)=C2C(=O)Nc2cc(F)c(F)cc2F)ccc1O	8.04 µM (inactive)
O=C(c1cc(O)ccc1O)c1ccccc1C(Cl)(Cl)Cl	41.9 µM (inactive)

Bench note: what GI50 did `CC(C)(C)C(=O)C(c1ccc(-c2cscn2)cc1)c1ccc(-c2cscn2)cc1` show?
44.4 µM (inactive)

----------
- Tested on: SW-620
- RUN_DESCRIPTION: NCI tumour cell line growth inhibition, 48 h
Activity calls are given as the source filed them. Cut-off read from the data, not from the text of the source: active = GI50 up to about 1.1 µM and inactive = higher.
The entries below come with measured GI50 values attached.

COc1ccc(/C=N/N=C(\N)NO)c(OC)c1	45.4 µM (inactive)
N#Cc1c(N2CCOCC2)ncn(-c2ccccc2)c1=O	> 100 µM (inactive)

Which measured GI50 value corresponds to C[C@]12CC[C@H](O)CC1=CC[C@@H]1C2CC[C@]2(C)NC(=O)C(C#N)CC12 (stereo not given in full) ?
> 100 µM (inactive)

Now give it for `O=C1CNC(=O)/C(=C/c2c[nH]c3ccccc23)N1` too.
> 100 µM (inactive)

What do we get for `COc1ccc(-c2cc(=O)c3ccccc3o2)cc1N` ?
38.4 µM (inactive)

Subsequent entry: `C[n+]1cccc(NC(=O)c2ccc(NC(=O)C34CCC(C(=O)Nc5ccc(C(=O)Nc6ccc[n+](C)c6)cc5)(CC3)CC4)cc2)c1`
70.1 µM (inactive)
